System: HBsAg
Test: HBsAg assay (CLIA of secreted HBsAg in HepG2.2.15 culture supernatant)
Type: cell-based, HBV
Conditions: read-out: IC50 (HBsAg secretion reduced by 50% compared to the no drug control); HepG2.2.15 cells, culture supernatant, HBsAg CLIA
Protocol: HepG2.2.15 cells (Acs et al. Proc Natl Acad Sci USA, 84, (1987), 4641-4), a constitutively HBV-expressing cell line were cultured in DMEM+Glutamax-I medium (Invitrogen, Carlsbad, Calif., USA, Catalog number: 11320082), supplemented with 10% fetal bovine serum (Invitrogen, Catalog number: 10099141) and G418 (Invitrogen, Catalog number: 10131027) at a final concentration of 200 mg/L and maintained in 5% CO2 at 37° C. […]
The label is class 1 for IC50 below 400 nM and class 0 for IC50 equal to or exceeding 400 nM.

Answered examples (4):
{"columns": ["Compound", "Class"],
 "data": [
  ["COCCCOc1cc2c(cc1OC)-c1cc(=O)c(C(=O)O)cn1[C@H](C(C)(C)O)C2 (single isomer, unassigned) [Example 21]", "class 1"],
  ["COCCCOc1cc2c(cc1Cl)-c1cc(=O)c(C(=O)O)cn1C(C(C)(C)COC)C2 (single isomer, unassigned) [Example 31]", "class 1"],
  ["COCCCOc1cc2c(cc1OC)-c1cc(=O)c(C(=O)O)cn1C(C(C)(C)O)C2 (single isomer, unassigned) [Example 22]", "class 0"],
  ["COCCCOc1cc2c(cc1Cl)-c1cc(=O)c(C(=O)O)cn1C(C(C)(C)COC)C2 (single isomer, unassigned) [Example 32]", "class 0"]
]}

# input Here's an entry: COCCCOc1cc2c(cc1OC)-c1cc(=O)c(C(=O)O)cn1C(C(C)(C)COC)C2 (single isomer, unassigned) [Example 28] . Is its IC50 below 400 nM?
# output class 1

# input Now this one: COCCCOc1cc2c(cc1OC)-c1cc(=O)c(C(=O)O)cn1[C@H](C(C)(C)CO)C2 (single isomer, unassigned) [Example 25]
# output class 1

# input Now this one: COCCCOc1cc2c(cc1OC)-c1cc(=O)c(C(=O)O)cn1C(C(C)(C)CO)C2 (single isomer, unassigned) [Example 26]
# output class 1
